# reported Kd; entries follow
system_under_test: HsProRS (Homo sapiens, UniProt P07814)
Sequence (P07814 1007-1512 limits assumed): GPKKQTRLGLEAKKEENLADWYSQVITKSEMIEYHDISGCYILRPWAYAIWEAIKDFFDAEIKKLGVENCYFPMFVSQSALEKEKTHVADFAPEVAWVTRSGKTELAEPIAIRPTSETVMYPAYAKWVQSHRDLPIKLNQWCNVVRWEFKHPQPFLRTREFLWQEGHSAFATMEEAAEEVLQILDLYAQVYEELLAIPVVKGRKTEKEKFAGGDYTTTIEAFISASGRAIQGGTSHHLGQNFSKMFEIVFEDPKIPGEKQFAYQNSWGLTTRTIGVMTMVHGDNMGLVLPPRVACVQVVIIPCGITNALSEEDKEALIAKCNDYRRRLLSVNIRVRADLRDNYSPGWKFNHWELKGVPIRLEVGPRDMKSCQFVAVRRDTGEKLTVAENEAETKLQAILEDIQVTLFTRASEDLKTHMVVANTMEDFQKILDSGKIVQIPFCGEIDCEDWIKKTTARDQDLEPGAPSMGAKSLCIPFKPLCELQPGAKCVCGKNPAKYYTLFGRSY
assay_overview: TR-FRET ligand displacement assay with tracer MAT379, HsProRS
Format: binding
condition_notes: read-out: HsProRS (KD [nM]) +proline; 100 μM Pro
Where a name gives a salt, the structure may show the parent alone.
Kindly provide the numeric value in nM only, without the unit symbol.

O=C(CCCCCNC(=O)Nc1ccccc1)NCC1CCN(C(=O)Nc2nccnc2C(=O)NC2Cc3ccccc3C2)CC1 [MAT516] ... 159
O=C(CCCCCNC(=S)Nc1ccccc1)NCC1CCN(C(=O)Nc2nccnc2C(=O)NC2Cc3ccccc3C2)CC1 [MAT517] ... 1680
CC(C)(C)OC(=O)NCCCCCC(=O)NCC1CCN(C(=O)Nc2nccnc2C(=O)NC2Cc3ccccc3C2)CC1 [Compound 43] ... 2280
CC(C)(C)OC(=O)NC1CCN(C(=O)Nc2nccnc2C(=O)NC2Cc3ccccc3C2)CC1 [Compound 7] ... 34.8
O=C(CCCCCNC(=S)NC1CCCCC1)NC1CCN(C(=O)Nc2nccnc2C(=O)NC2Cc3ccccc3C2)CC1 [MAT483] ... 3020

Note to self: Kd recorded for O=C(NC1Cc2ccccc2C1)c1nccnc1NC(=O)N1CCNCC1 [Compound 14, dihydrochloride] was 347

Note to self: Kd recorded for NC1(C(=O)Nc2nccnc2C(=O)NC2Cc3ccccc3C2)CCCCC1 [Compound 17] was 25.5

Note to self: Kd recorded for O=C(CCCCCNC(=S)Nc1ccccc1)NC1CCN(C(=O)Nc2nccnc2C(=O)NC2Cc3ccccc3C2)CC1 [MAT482] was 1360

Note to self: Kd recorded for O=C(NC1Cc2ccccc2C1)c1nccnc1NC(=O)N1CCC(CCO)CC1 [Compound 12] was 150

Note to self: Kd recorded for NCCCCCC(=O)NCC1CCN(C(=O)Nc2nccnc2C(=O)NC2Cc3ccccc3C2)CC1 [Compound 44, dihydrochloride] was 330

Note to self: Kd recorded for CC(C)(C)OC(=O)NCCCCCC(=O)NC1CCN(C(=O)Nc2nccnc2C(=O)NC2Cc3ccccc3C2)CC1 [Compound 41] was 561

Note to self: Kd recorded for O=C(NC1Cc2ccccc2C1)c1nccnc1NC(=O)C1CCCCC1 [Compound 2, reference compound] was 2.16

Note to self: Kd recorded for O=C(C[C@@H]1NCCC[C@@H]1OC(=O)NS(=O)(=O)N1CCN(C(=O)Nc2nccnc2C(=O)NC2Cc3ccccc3C2)CC1)Cn1cnc2cc(Br)c(Cl)cc2c1=O (relative stereo) [iso-MAT436(40)] was 20.8

Note to self: Kd recorded for C[C@@H]1CCC[C@H](C)N1C(=O)Nc1nccnc1C(=O)NC1Cc2ccccc2C1 [Compound 19] was 1320

Note to self: Kd recorded for O=C(Nc1nccnc1C(=O)NC1Cc2ccccc2C1)c1ccccc1 [Compound 21] was 140

###

# reported log10(Kd); entries follow
system_under_test: HsProRS (Homo sapiens)
assay_overview: TR-FRET ligand displacement assay with tracer MAT379, HsProRS
Format: binding
condition_notes: no proline, no ATP; read-out: HsProRS (KD [nM]) −
Hello, just confirming the data are log10 of Kd with units of nM.

CC(C)(C)OC(=O)N1CCC[C@@H](OC(=O)NS(=O)(=O)N2CCN(C(=O)Nc3nccnc3C(=O)NC3Cc4ccccc4C3)CC2)[C@@H]1CC(O)Cn1cnc2cc(Br)c(Cl)cc2c1=O (stereo partly drawn) ... 2.42
NC1(C(=O)Nc2nccnc2C(=O)NC2Cc3ccccc3C2)CCCCC1 ... 3.65
O=C(CCCCCNC(=S)Nc1ccccc1)NCC1CCN(C(=O)Nc2nccnc2C(=O)NC2Cc3ccccc3C2)CC1 ... 2.94
O=C(NC1Cc2ccccc2C1)c1nccnc1NC(=O)N1CCCCC1 ... 2.43
O=C(CCCCCNC(=S)Nc1ccccc1)NC1CCN(C(=O)Nc2nccnc2C(=O)NC2Cc3ccccc3C2)CC1 ... 2.71
O=C(NC1Cc2ccccc2C1)c1nccnc1NC(=O)C1CCCCC1 [Compound 2, reference compound] ... 2.57
CC(C)(C)OC(=O)NCC1CCN(C(=O)Nc2nccnc2C(=O)NC2Cc3ccccc3C2)CC1 ... 3.40
CC1(C(=O)Nc2nccnc2C(=O)NC2Cc3ccccc3C2)CCCCC1 ... 2.34

Note to self: log10(Kd) recorded for O=C(NS(=O)(=O)N1CCN(C(=O)Nc2nccnc2C(=O)NC2Cc3ccccc3C2)CC1)O[C@H]1CCCN[C@@H]1CC(O)Cn1cnc2cc(Br)c(Cl)cc2c1=O (stereo partly drawn) [MAT583, 2,2,2-trifluoroacetate] was 2.84

Note to self: log10(Kd) recorded for O=C(Nc1nccnc1C(=O)NC1Cc2ccccc2C1)c1ccccc1 was 3.89

Note to self: log10(Kd) recorded for NCCCCCC(=O)NCCCCCC(=O)NC1CCN(C(=O)Nc2nccnc2C(=O)NC2Cc3ccccc3C2)CC1 was 3.37

Note to self: log10(Kd) recorded for O=C(NC1Cc2ccccc2C1)c1nccnc1NC(=O)N1CCC(CCO)CC1 was 2.84

From: patent US20250228855A1
